Every entry's value here was drawn from patent US20180305451A1.

Attribute: koff
- Test system: T1, HIDE1_HH-1 (Human ECD + human IgG1 Fc mutated C220S at hinge), without SP (human)
- T1 construct: Batch #280 in the Serotec and phage display work; also called HIDE1 hECD-hIg; HIDE1 (H:H) recombinant Fc fusion protein
- T1 sequence (chain, as listed by the source C220S C220S limits assumed): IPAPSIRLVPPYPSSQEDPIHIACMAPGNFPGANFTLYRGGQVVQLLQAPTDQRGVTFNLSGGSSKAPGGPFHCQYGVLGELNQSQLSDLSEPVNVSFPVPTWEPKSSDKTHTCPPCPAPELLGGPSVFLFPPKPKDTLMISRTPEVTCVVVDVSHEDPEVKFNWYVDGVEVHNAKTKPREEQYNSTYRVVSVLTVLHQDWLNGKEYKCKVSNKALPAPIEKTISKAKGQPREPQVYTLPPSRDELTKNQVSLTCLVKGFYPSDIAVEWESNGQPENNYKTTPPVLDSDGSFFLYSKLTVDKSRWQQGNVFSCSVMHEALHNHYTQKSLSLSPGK
- Experimental details: SPR (ProteOn), Fab PPE over captured HIDE1-HH-1, 1:1 fit
The reply should contain only the number, in s⁻¹.

See these solved cases before continuing.
Binder: CPA.12.005 Fab (A06 S397-01.H07) (Fab, V domains shown, XOMA031 library Fab in periplasmic extract) VH: QVQLVESGGGVVQPGRSLRVSCAVSGFTFSSYGMHWVRQAPGGGLEWVAVMSYEGSFRHYADSVKGRFTISRDNSKNTLFLQMDSLRAEDTAVYYCARDRPAGYTSGWGILDYWGQGTLVTVSS VL: EIVMTQSPATLSLSPGERATLSCRASQSVSSYLAWYQQKPGQAPRLLIYDASNRATGIPARFSGSGSGTDFTLTISSLEPEDFAVYYCQQRSNWPLTFGGGTKVDIKR
Unit string: s⁻¹
Reading: 0.001
//
Binder: CPA.12.007 Fab (A08 S398-01.E08) (Fab, V domains shown, XOMA031 library Fab in periplasmic extract) VH: EVQLVESGGGVVQPGESLRLSCAASGFTFSSYGFHWVRQSPGEGLEWLAVISYDGTSKSYADSVKGRFTVSRDNSKETLYLQLSSLRREDTALYYCARDTWGYYYGMDVWGQGTTVTVSS VL: DIQMTQSPSFLSGSVGDRVSISCRASQDIRSHLAWYQRKPGEAPKLLIYTASSLQGGVPLRFSGSGSGTEFTLTISSLQPEDSATYYCQHLHLYPLTFGGGTKLEIKR
Unit string: s⁻¹
Reading: 0.00034

Here's the next entry for you.
Problem: # koff lookup, item CPA.12.006 Fab (A07 S398-01.D09) (Fab, V domains shown, XOMA031 library Fab in periplasmic extract) VH: EVQLVESGGGVVQPGRSLRLSCAASGFTFSSFAMHWVRQAPGKGPEWLGIILYEGGHVVYADSVRGRLTISRDNSKNTLYLQMDSLRDEDTAVYYCAKGFYHAFDVWGQGTMVTVSS VL: QAVLTQPASLSASPGASASLTCTLRSGINVGTYRIYWYQQKPGSPPQYLLRYKSDSDKQQGSGVPSRFSGSKDASANAGILLISGLQSEDEADYYCMIWHSSAWVFGGGTQLTVLG
Solution: 0.00027
